- TEST NAME: In vitro degradation rate constant in phosphate buffer at pH 7.4
- Type: ADME
Assign Rate constant to each entry below.
Provide the reading as a plain figure in h⁻¹.

Which measured Rate constant value corresponds to C[n+]1cccc(C(=O)OC[C@H]2O[C@@H](n3ccc(=O)[nH]c3=O)C[C@@H]2N=[N+]=[N-])c1.[I-] ?
0.8

Do the same for Cc1cn([C@H]2C[C@H](N=[N+]=[N-])[C@@H](COC(=O)c3ccc[n+](C)c3)O2)c(=O)[nH]c1=O.[I-] please
0.55

And what about the compound Cc1cn([C@H]2C[C@H](N=[N+]=[N-])[C@@H](COC(=O)C3=CN(C)C=CC3)O2)c(=O)[nH]c1=O ?
0.21

Try the compound CN1C=CCC(C(=O)OC[C@H]2O[C@@H](n3ccc(=O)[nH]c3=O)C[C@@H]2N=[N+]=[N-])=C1
0.33
